src = the supplement of paper PMC4466140

Kindly supply the reported SPOT peptide array binding signal intensity values for the records listed here.
- experimental.system: ScMyo3
- assay.remarks: SPOT peptide array binding signal intensity (averaged, normalized) (arbitrary units (background-subtracted, floor 0; scale differs between SH3 domains)); higher = stronger binding of the SH3 domain to the peptide
Numbers only.

Quick one: give me SPOT peptide array binding signal intensity for each item below, same order please.
1. MAMRPIPPLPTESEY
2. FSRRQSMDIPSKNRN
3. IKKRNKIRLPSGSPE
4. RMVRRRPLRVQFSAR
5. YVRRRPRVRLEPLLS

1. 21.5
2. 41.5
3. 4
4. 16
5. 6.25

Quick one: give me SPOT peptide array binding signal intensity for each item below, same order please.
1. NAGIRPKFILALNDE
2. NFKRLLPRDPSEKSS
3. SLSRRRFSLPSMPNV
4. NSVPIMPTLPPRPYI
5. RSVKRPRRAPRPVVS
6. AIPPPVPNRPGGTTN
7. KLSRGRYGLPLSSRP

2.5
2
9.5
668
1
26
6

Kindly note the recorded SPOT peptide array binding signal intensity for DLPLPDLPPEPPTEL , which is 384
